- System Tested: human CaV1.2 (Homo sapiens, UniProt Q13936)
- Construct: expressed in transfected cells; host or cells: Flp-In 293 T-Rex (HEK293), monoclonal CaV1.2-HEK293(AUX) clone 2-19B; doxycycline-induced auxiliary subunits
- Sequence (Q13936 1-2138 isoform Q13936-23): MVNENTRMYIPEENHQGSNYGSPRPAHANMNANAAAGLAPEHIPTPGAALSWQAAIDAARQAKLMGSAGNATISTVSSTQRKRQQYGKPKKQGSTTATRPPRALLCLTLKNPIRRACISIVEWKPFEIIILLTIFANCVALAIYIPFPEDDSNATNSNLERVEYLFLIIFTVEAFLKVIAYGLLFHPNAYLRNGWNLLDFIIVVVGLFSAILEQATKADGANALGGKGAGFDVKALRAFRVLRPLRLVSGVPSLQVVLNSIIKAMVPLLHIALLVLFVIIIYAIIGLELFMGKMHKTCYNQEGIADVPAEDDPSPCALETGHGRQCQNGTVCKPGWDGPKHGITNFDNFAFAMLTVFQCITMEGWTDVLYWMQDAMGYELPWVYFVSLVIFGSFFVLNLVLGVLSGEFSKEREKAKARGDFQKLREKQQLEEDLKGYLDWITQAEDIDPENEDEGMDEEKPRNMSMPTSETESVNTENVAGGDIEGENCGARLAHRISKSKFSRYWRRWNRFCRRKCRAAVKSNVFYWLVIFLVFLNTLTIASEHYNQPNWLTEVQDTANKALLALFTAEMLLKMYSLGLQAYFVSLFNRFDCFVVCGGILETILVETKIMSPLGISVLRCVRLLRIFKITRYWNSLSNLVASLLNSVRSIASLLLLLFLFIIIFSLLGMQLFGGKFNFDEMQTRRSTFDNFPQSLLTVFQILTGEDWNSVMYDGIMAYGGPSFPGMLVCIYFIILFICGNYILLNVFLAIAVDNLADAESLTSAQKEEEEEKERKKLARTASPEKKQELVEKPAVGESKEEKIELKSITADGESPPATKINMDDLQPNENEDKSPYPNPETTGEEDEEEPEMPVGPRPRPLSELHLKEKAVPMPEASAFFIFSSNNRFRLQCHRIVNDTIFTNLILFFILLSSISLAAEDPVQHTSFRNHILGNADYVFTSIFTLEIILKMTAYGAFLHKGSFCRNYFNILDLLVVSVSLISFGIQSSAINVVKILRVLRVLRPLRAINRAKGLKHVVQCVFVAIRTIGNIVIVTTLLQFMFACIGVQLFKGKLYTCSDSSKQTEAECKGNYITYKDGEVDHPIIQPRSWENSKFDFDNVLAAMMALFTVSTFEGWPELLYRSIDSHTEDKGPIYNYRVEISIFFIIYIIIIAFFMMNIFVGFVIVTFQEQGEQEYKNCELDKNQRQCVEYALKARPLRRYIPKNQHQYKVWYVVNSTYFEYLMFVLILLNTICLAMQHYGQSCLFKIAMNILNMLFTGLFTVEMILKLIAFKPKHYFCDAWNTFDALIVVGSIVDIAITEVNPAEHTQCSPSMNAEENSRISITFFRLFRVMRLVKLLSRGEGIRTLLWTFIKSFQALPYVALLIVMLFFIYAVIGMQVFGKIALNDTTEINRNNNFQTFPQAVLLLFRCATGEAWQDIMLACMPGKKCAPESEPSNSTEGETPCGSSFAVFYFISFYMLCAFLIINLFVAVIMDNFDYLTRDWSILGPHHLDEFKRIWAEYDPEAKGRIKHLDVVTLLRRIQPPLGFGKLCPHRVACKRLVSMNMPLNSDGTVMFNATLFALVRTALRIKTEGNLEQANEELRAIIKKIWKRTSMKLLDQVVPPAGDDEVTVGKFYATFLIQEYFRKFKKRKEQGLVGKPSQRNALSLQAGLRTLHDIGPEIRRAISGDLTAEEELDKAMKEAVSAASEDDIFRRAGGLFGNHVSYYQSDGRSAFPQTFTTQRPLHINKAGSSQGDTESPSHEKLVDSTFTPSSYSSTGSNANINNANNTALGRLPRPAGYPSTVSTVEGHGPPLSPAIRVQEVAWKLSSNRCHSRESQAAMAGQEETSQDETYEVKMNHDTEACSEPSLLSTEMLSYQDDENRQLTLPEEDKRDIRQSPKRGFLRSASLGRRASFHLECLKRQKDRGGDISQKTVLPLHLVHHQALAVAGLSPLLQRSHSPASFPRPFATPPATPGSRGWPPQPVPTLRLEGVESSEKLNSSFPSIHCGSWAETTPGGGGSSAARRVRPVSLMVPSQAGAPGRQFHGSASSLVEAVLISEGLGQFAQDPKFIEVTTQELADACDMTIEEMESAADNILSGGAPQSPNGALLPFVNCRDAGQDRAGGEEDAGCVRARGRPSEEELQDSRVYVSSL
- Sequence (Q9NY47 19-1001 partner limits assumed): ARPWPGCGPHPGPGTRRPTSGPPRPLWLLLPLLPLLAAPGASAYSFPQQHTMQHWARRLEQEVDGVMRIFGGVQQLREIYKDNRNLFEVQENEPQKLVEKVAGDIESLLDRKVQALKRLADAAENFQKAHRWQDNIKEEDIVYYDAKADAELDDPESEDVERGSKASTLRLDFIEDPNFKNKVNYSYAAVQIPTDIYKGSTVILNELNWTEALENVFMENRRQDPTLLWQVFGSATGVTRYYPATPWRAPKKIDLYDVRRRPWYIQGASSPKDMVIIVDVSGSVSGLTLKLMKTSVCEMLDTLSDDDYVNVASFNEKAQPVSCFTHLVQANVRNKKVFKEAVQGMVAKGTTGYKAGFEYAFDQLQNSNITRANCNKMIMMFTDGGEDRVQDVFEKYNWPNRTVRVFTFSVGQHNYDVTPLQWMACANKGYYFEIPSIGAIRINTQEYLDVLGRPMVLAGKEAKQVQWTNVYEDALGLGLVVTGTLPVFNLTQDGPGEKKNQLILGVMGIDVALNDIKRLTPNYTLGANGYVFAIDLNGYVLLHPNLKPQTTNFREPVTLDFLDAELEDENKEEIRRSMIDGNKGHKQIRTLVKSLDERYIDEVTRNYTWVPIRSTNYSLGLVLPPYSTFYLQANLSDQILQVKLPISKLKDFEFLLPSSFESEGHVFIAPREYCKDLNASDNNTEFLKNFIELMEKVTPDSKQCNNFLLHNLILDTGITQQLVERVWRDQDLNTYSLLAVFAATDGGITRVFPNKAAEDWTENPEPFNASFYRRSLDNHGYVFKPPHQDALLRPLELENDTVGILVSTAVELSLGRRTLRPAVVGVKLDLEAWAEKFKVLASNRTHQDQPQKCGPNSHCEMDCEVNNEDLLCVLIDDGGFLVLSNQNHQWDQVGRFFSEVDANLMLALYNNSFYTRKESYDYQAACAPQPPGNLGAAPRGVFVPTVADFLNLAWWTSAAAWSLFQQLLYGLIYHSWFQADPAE
- Sequence (Q9NY47 1002-1150 partner limits assumed): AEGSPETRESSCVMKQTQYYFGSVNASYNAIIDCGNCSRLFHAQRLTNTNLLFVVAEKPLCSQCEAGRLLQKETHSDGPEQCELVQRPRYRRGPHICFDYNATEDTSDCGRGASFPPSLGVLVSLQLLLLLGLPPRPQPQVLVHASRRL
- Sequence (Q08289 whole entry partner): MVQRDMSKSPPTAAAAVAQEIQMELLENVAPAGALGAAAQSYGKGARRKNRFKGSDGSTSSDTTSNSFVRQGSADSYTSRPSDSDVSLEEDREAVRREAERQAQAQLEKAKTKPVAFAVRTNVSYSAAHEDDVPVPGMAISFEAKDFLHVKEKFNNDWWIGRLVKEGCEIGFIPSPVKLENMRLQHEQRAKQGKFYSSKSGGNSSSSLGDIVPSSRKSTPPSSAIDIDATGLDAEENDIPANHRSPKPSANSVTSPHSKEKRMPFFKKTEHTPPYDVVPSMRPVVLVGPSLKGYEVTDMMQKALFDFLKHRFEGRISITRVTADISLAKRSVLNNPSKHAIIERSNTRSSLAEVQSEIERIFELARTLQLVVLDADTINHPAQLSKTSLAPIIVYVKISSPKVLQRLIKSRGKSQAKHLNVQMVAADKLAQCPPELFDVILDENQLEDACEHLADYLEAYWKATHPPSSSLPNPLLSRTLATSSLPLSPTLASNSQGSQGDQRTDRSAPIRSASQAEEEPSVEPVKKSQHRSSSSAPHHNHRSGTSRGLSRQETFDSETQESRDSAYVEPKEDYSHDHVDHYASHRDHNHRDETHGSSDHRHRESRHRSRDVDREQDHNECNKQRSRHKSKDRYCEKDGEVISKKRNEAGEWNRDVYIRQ
- Method: Sophion QPatch dose-response assay, whole-cell voltage clamp of barium currents in CaV1.2-HEK293(AUX) cells
- Type: cell-based
- Condition Details: Table 9; 6-point dose response, 10 determinations per concentration; n = 1 unless * n = 2
Quantity Kind: EC50 (nM)
Answers are plain numbers, in nM.

Worked examples follow.
Compound: COC(=O)C1=C(CF)NC2=C(C(=O)OC2)[C@H]1c1cc(F)cc(F)c1[C@H](F)CF (single isomer, unassigned)
System Tested: human CaV1.2 (Homo sapiens, UniProt Q13936)
EC50, nM: 10
//
Compound: COC(=O)C1=C(CF)NC2=C(C(=O)CC2)[C@H]1c1cc(F)cc(F)c1C1CC1 (single isomer, unassigned)
System Tested: human CaV1.2 (Homo sapiens, UniProt Q13936)
EC50, nM: 90

Switching to the query record.
Exercise: Provide measured EC50 value, entry: COC(=O)C1=C(CF)NC2=C(C(=O)OC2)[C@H]1c1cccc(F)c1C(F)F (single isomer, unassigned)
Key: 290

* * *

Consider the following compounds; for each one, report its %↑cFOS mRNA cortex (3 mg/kg ip).
- System: cFos mRNA
- Method: cFos mRNA induction in cortex of wild-type mice (PK-PD)
- Format: in vivo, C57BL/6J male mice
- Condition Details: 3 mg/kg ip, one hour after administration
Numbers only, in %.

Provide %↑cFOS mRNA cortex (3 mg/kg ip) for all items below, preserving their order.
1. COC(=O)C1=C(CF)NC2=C(C(=O)OC2)[C@H]1c1cccc(F)c1[C@@H](C)F (single isomer, unassigned)
2. COC(=O)C1=C(CF)NC2=C(C(=O)OC2)[C@H]1c1cc(F)ccc1C(F)(F)F (single isomer, unassigned)
3. COC(=O)C1=C(CF)NC2=C(C(=O)OC2)[C@H]1c1cccc(F)c1[C@H]1CC1(F)F (single isomer, unassigned)

Key:
1: 496; 2: 365; 3: 254

Can you give me %↑cFOS mRNA cortex (3 mg/kg ip) for all of these, one by one?
1. COC(=O)C1=C(CF)NC2=C(C(=O)OC2)[C@H]1c1cc(F)cc(F)c1[C@H](C)F (single isomer, unassigned)
2. COC(=O)C1=C(CF)NC2=C(C(=O)OC2)[C@H]1c1cccc(F)c1C(F)F (single isomer, unassigned)
3. COC(=O)C1=C(CF)NC2=C(C(=O)CC2)[C@H]1c1cccc(F)c1[C@@H](F)CF (single isomer, unassigned)
4. COC(=O)C1=C(CF)NC2=C(C(=O)OC2)[C@H]1c1cccc(F)c1CC(F)F (single isomer, unassigned)
5. COC(=O)C1=C(CF)NC2=C(C(=O)OC2)[C@H]1c1cc(F)cc(F)c1[C@H]1CC1(F)F (single isomer, unassigned) [Example 4]
6. COC(=O)C1=C(CF)NC2=C(C(=O)OC2)[C@H]1c1cc(F)cc(F)c1[C@H]1CC1(F)F (single isomer, unassigned) [Example 3]
7. COC(=O)C1=C(CF)NC2=C(C(=O)OC2)[C@H]1c1cc(F)cc(F)c1C1CC1 (single isomer, unassigned)
8. COC(=O)C1=C(CF)NC2=C(C(=O)OC2)[C@H]1c1cccc(F)c1C1CC1 (single isomer, unassigned)

Key:
[400, 176, 262, 160, 161, 204, 225, 378]

Quick one: give me %↑cFOS mRNA cortex (3 mg/kg ip) for each item below, same order please.
1. COC(=O)C1=C(CF)NC2=C(C(=O)OC2)[C@H]1c1cc(F)cc(F)c1C(F)(F)F (single isomer, unassigned)
2. COC(=O)C1=C(CF)NC2=C(C(=O)OC2)[C@H]1c1cccc(F)c1C(F)(F)F (single isomer, unassigned)

Key:
1: 225; 2: 201
